Here, each record is paired with measured cell viability data.
system: NOMO1; assay: cell viability relative to DMSO control; higher = less cytotoxic; settings: RPMI 5 mM glucose + 10% dialyzed FBS; 48 h; 0.0211 µM
Dear colleague, please return just the value in %, with no unit written.

These recorded examples may help you get a feel for the data.
Fill in: cell viability of O=P1(N(CCCl)CCCl)NCCCO1 (centres undefined) is ___
119

Input `COc1cc(Nc2ncc(F)c(Nc3ccc4c(n3)N(COP(=O)(O)O)C(=O)C(C)(C)O4)n2)cc(OC)c1OC`
80.2

Param item: `C=CCc1cc(OC)c(O)c(C(=O)NCCO)c1`
106

Then there is this compound:
Return reported cell viability; argument: `CN(C)CC[C@H](CSc1ccccc1)Nc1ccc([S+](=O)([O-])NC(=O)c2ccc(N3CCN(Cc4ccccc4-c4ccc(Cl)cc4)CC3)cc2)cc1[N+](=O)[O-]`
114
